Sourced from PubChem BioAssay AID1573

Target: Thyroid hormone receptor beta (Homo sapiens)
Experiment: Concentration Response Confirmation Assay for Inhibitors of the Interaction of Thyroid Hormone Receptor and Steroid Receptor Coregulator 2
Details: TRb LBD + Texas Red SRC2 peptide, fluorescence polarization, 5 h; series mostly up to 92.2 µM
Inconclusive results are not listed. Activity calls are given as the source filed them. Calls follow the shape of the dose curve; as a rule, active = well fitted inhibition curve with a large enough effect; inconclusive = small, poorly fitted or top-dose-only effect; inactive = no such curve, though single readings can be large or run the other way.
Outcomes: YES (active), NO (inactive)

{"columns": ["Compound", "Target or test system", "Class assignment"],
 "data": [
  ["CCCCCCN=CC1=C(O)CC(C)(C)CC1=O", "Thyroid hormone receptor beta (Homo sapiens)", "NO"],
  ["COc1cc(/C=C(\\C#N)C(=O)NCC2CCCO2)ccc1OCCC(C)C (stereo not given)", "Thyroid hormone receptor beta (Homo sapiens)", "YES"],
  ["Cc1ccccc1Nc1cc2ccccc2c(=O)[nH]1", "Thyroid hormone receptor beta (Homo sapiens)", "YES"],
  ["Nc1cc(-c2ccccc2)c[nH]c1=O", "Thyroid hormone receptor beta (Homo sapiens)", "NO"],
  ["Cc1nc2ccccc2n2c(O)c(CC(=O)O)cc12", "Thyroid hormone receptor beta (Homo sapiens)", "YES"],
  ["CCCCOc1ccc(C(=O)CCN2CCOCC2)cc1", "Thyroid hormone receptor beta (Homo sapiens)", "YES"],
  ["O=C1CCCC(O)=C1N=Nc1cccc(S(=O)(=O)N2CCOCC2)c1", "Thyroid hormone receptor beta (Homo sapiens)", "NO"],
  ["C=CCNC(=O)/C(C#N)=C\\c1cc(Cl)c(OCC)c(OC)c1", "Thyroid hormone receptor beta (Homo sapiens)", "YES"],
  ["O=c1[nH]c(Nc2ccccc2)cc2ccccc12", "Thyroid hormone receptor beta (Homo sapiens)", "YES"],
  ["Oc1ccc2ccccc2c1/C=N/c1nccs1", "Thyroid hormone receptor beta (Homo sapiens)", "YES"],
  ["O=c1cc(C23CC4CC(CC(C4)C2)C3)[nH][nH]1", "Thyroid hormone receptor beta (Homo sapiens)", "NO"],
  ["Cc1cccc(Cn2c(C(=O)OC(C)C)cc3c2ccn3C)c1", "Thyroid hormone receptor beta (Homo sapiens)", "NO"],
  ["Cc1cccc(S(=O)(=O)c2cn(Cc3ccccc3)c3cc(N4CCC(C)CC4)c(F)cc3c2=O)c1", "Thyroid hormone receptor beta (Homo sapiens)", "NO"],
  ["O=C(Nc1nc2ccc(Cl)cc2s1)c1ccc(N2CCCCC2)c([N+](=O)[O-])c1", "Thyroid hormone receptor beta (Homo sapiens)", "NO"],
  ["COc1cc(C(c2c(C)[nH][nH]c2=O)c2c(C)[nH][nH]c2=O)ccc1OC(=O)c1cccc(C)c1", "Thyroid hormone receptor beta (Homo sapiens)", "YES"],
  ["C=CCNC(=O)/C(C#N)=C/c1c(C)nn(-c2ccc(Cl)cc2)c1Cl", "Thyroid hormone receptor beta (Homo sapiens)", "YES"],
  ["CC(NC(=O)Nc1ccc(O)cc1)(C(F)(F)F)C(F)(F)F", "Thyroid hormone receptor beta (Homo sapiens)", "NO"],
  ["Cn1cc[nH]c1=S", "Thyroid hormone receptor beta (Homo sapiens)", "NO"],
  ["O=C(NNc1cc(N2CCOCC2)nc(N2CCOCC2)n1)c1ccc(Cl)c(Cl)c1", "Thyroid hormone receptor beta (Homo sapiens)", "YES"],
  ["CN1N=C(C(C)(C)C)CC1=O", "Thyroid hormone receptor beta (Homo sapiens)", "NO"],
  ["Oc1ccc2ccccc2c1C=NC12CN3CCN(CN(C3)C1)C2", "Thyroid hormone receptor beta (Homo sapiens)", "YES"],
  ["CS(=O)(=O)c1ccc(C(=O)OCC(=O)NC(=O)C2CCCCC2)cc1[N+](=O)[O-]", "Thyroid hormone receptor beta (Homo sapiens)", "YES"],
  ["Cc1cc(N=Cc2c(O)ccc3ccccc23)no1", "Thyroid hormone receptor beta (Homo sapiens)", "YES"],
  ["COc1ccc(-c2nc(CS(=O)CC(=O)NCc3ccccn3)c(C)o2)cc1 (stereo not given)", "Thyroid hormone receptor beta (Homo sapiens)", "YES"],
  ["O=C(NNc1cc(N2CCOCC2)nc(N2CCOCC2)n1)c1ccc([N+](=O)[O-])cc1", "Thyroid hormone receptor beta (Homo sapiens)", "YES"]
]}
